# MIC Staphylococcus aureus-SMITH (GC 4543) per entry
Tested on: Staphylococcus sp.
protocol: in vitro antibacterial evaluation, MIC by broth dilution
Format: cell-based
testConditions: strain GC 4543; broth dilution, 18 hours at 35° C.
Source text: Methods for in vitro Antibacterial Evaluation (Table 1) […]

Reference set (3 entries):
# molecule, reportedValue
records = [
    ("CC(c1ccccc1)C1NC(=O)CNC(=O)C(CO)NC(=O)C(C(O)C2CNC(=N)N2C2OC(CO)C(O)C(O)C2O)NC(=O)C(C(O)C2CNC(=N)N2)NC(=O)C(Cc2ccc(OC3OC(CO)C(OC4OC5COC(c6cccc(OCc7ccc([N+](=O)[O-])cc7)c6)OC5C(O)C4O)C(O)C3O)cc2)NC1=O (stereo not shown)", ">64 µg/mL"),
    ("CCC(=O)Nc1cc(CC2NC(=O)C(C(C)c3ccccc3)NC(=O)CNC(=O)C(CO)NC(=O)C(C(O)C3CNC(=N)N3C3OC(CO)C(O)C(O)C3O)NC(=O)C(C(O)C3CNC(=N)N3)NC2=O)ccc1O (stereo not shown)", ">128 µg/mL"),
    ("CC(c1ccccc1)C1NC(=O)CNC(=O)C(CO)NC(=O)C(C(O)C2CNC(=N)N2C2OC(CO)C(O)C(O)C2O)NC(=O)C(C(O)C2CNC(=N)N2)NC(=O)C(Cc2ccc(O)c(NC(=O)c3ccccc3)c2)NC1=O (stereo not shown)", ">64 µg/mL"),
]

Here is another molecule to look at.
Staphylococcus sp. / MIC Staphylococcus aureus-SMITH (GC 4543) / CC(c1ccccc1)C1NC(=O)CNC(=O)C(CO)NC(=O)C(C(O)C2CNC(=N)N2C2OC(CO)C(O)C(O)C2O)NC(=O)C(C(O)C2CNC(=N)N2)NC(=O)C(Cc2ccc(O)c(NC(=S)Nc3cc(C(F)(F)F)cc(C(F)(F)F)c3)c2)NC1=O (stereo not shown) : value?
>64 µg/mL

###

# MIC Enterococcus faecalis (GC 4554) per entry
Test system: Enterococcus sp.
protocol: in vitro antibacterial evaluation, MIC by broth dilution
Format: cell-based
testConditions: Enterococcus faecalis (GC 4554); broth dilution, 18 hours at 35° C.

# molecule, MIC Enterococcus faecalis (GC 4554)
rows = [
    ("CC(c1ccccc1)C1NC(=O)CNC(=O)C(CO)NC(=O)C(C(O)C2CNC(=N)N2C2OC(CO)C(O)C(O)C2O)NC(=O)C(C(O)C2CNC(=N)N2)NC(=O)C(Cc2ccc(OC3OC(CO)C(OC4OC5COC(c6cccc(O)c6)OC5C(O)C4O)C(O)C3O)cc2)NC1=O (stereo not drawn) [Example 136]", ">64 µg/mL"),
    ("CC(c1ccccc1)C1NC(=O)CNC(=O)C(CO)NC(=O)C(C(O)C2CN(Cc3ccccc3)C(=N)N2C2OC(CO)C(O)C(O)C2O)NC(=O)C(C(O)C2CNC(=N)N2)NC(=O)C(Cc2ccc(OC3OC(CO)C(OC4OC(CO)C(O)C(O)C4O)C(O)C3O)cc2)NC1=O (stereo not drawn) [Example 59]", ">128 µg/mL"),
]

Here is another molecule to look at.
Request the reported MIC Enterococcus faecalis (GC 4554) associated with CC(c1ccccc1)C1NC(=O)CNC(=O)C(CO)NC(=O)C(C(O)C2CNC(=N)N2C2OC(COC(=O)C(c3ccccc3)c3ccccc3)C(O)C(O)C2O)NC(=O)C(C(O)C2CNC(=N)N2)NC(=O)C(Cc2ccc(OC3OC(CO)C(OC4OC(CO)C(O)C(O)C4O)C(O)C3O)cc2)NC1=O (stereo not drawn) [Example 96]
>128 µg/mL
